Numbers sourced from ChEMBL document CHEMBL1201862.

Listed next: entries and their corresponding GI50.
# Tested on: SK-OV-3
# ASSAY_DETAILS: NCI tumour cell line growth inhibition, 48 h
The source made the active and inactive calls. Rule as the data show it: active = GI50 up to about 1.1 µM and inactive = higher.

MOLECULE: CN1COCN/C1=N/C#N
SYSTEM_NAME: SK-OV-3
GI50: > 100 µM (inactive)

MOLECULE: NS(=O)(=O)c1nnc(NS(=O)(=O)c2ccccc2[N+](=O)[O-])s1
SYSTEM_NAME: SK-OV-3
GI50: > 100 µM (inactive)

MOLECULE: C[C@@H](C1CCC2C3C(=CC(=O)[C@@]21C)[C@H](C)[C@]1(CCC(=O)O1)C1OC31)[C@H]1C[C@]2(C)O[C@@](C)(O1)OC2(C)C (stereo not given in full)
SYSTEM_NAME: SK-OV-3
GI50: > 100 µM (inactive)

MOLECULE: CC(=O)OC(C)c1cc2c(s1)C(=O)c1ccsc1C2=O (stereo not given)
SYSTEM_NAME: SK-OV-3
GI50: 2.07 µM (inactive)

MOLECULE: O=C1c2c(Br)sc(Br)c2[C@@H](O)[C@H]1O
SYSTEM_NAME: SK-OV-3
GI50: 15.6 µM (inactive)

MOLECULE: C[n+]1cn(CC(=O)c2ccccc2)c(C(N)=O)c1N
SYSTEM_NAME: SK-OV-3
GI50: > 100 µM (inactive)

MOLECULE: COC(=O)C1(Cc2ccccc2)Cc2ccccc2C1=O (stereo not given)
SYSTEM_NAME: SK-OV-3
GI50: > 100 µM (inactive)

MOLECULE: C=C(C)[C@@]1(O)O[C@H]2C[C@@]3(C)OC(=CC3=O)/C(C)=C\[C@@H]3OC(=O)[C@@]1(C)[C@H]32
SYSTEM_NAME: SK-OV-3
GI50: 47.4 µM (inactive)

MOLECULE: CCOC(=O)[C@@]1(C)C=C2O[C@@H]3OC4(CCCCC4)O[C@@H]3C2=C2C(O)=CC=C(O)[C@]21C(=O)OC
SYSTEM_NAME: SK-OV-3
GI50: > 68.1 µM (inactive)

MOLECULE: O=C1C[S+]([O-])c2ccccc2N1 (stereo not given)
SYSTEM_NAME: SK-OV-3
GI50: > 100 µM (inactive)
